- System: NCI-H226 lung
- run description: NCI-60 one-dose screen, 48 h
- measurement context: 10 µM unless noted
Compounds without any hit were thinned out: in the full panel of roughly 83,000, 20% have a hit. Calls of active or inactive are those of the source. How the source made its calls: active means growth percent below 10; inactive means the rest.
Outcome codes: yes (1) = active, no (0) = inactive

molecule | class
C=C(CN1CC=CCC1)[C@@H]1CC[C@]2(C(=O)OC)CC[C@]3(C)[C@H](CC[C@@H]4[C@@]5(C)CC[C@H](OC(C)=O)C(C)(C)[C@@H]5CC[C@]43C)[C@@H]12 | no (0)
COc1cc(C2CC(c3cccc(Nc4ccnc5cc(Cl)ccc45)c3)=NN2c2ccc(Cl)cc2)cc(OC)c1OC (configuration not stated) | no (0)
CNCc1ccccc1CN(CC(=O)Nc1ccc2c(c1)CC1(C2)C(=O)Nc2ncccc21)C(=O)C(C)(C)C (configuration not stated) | no (0)
CCN(CC)CCC(CNc1ccnc2cc(Cl)ccc12)c1ccc(O)cc1 (configuration not stated) | no (0)
Cc1cc(C#Cc2ccccc2)ccc1-n1c(/C=C/c2ccc(F)cc2)nc2ccccc2c1=O | no (0)
COC(=O)c1cc(Cl)cc([N+](=O)[O-])c1O | no (0)
CCCCNCC(O)c1cc2c(Cl)cc(Cl)cc2c2cc(C(F)(F)F)ccc12 (configuration not stated) | yes (1)
CC(C)N1CCN(c2ccncc2S(=O)(=O)N2CCN(C)CC2)CC1 | no (0)
CC(C)c1[nH]ncc1-c1nc2ccc3[nH]ncc3c2c2c1CCCC2 | no (0)
CCOC(=O)C(Nc1ccccc1)C(=O)OCC | no (0)
COc1cc2nccc(Oc3ccc(NC(=O)C4(C(=O)Nc5ccc(F)cc5)CC4)cc3)c2cc1Oc1ccc(N)cn1 | no (0)
COc1ccc(/C(=C\c2cc(OC)c(OC)c(OC)c2)C(=O)N2CCNCC2)cc1 | no (0)
NS(=O)(=O)c1ccc(N2N=C(c3cccs3)CC2c2ccccc2O)cc1 (configuration not stated) | no (0)
FC(F)(F)c1ccc(/C=N/Nc2nnc3n2N=C(c2ccc(Cl)cc2)CS3)cc1 | no (0)
CC(C)(C)CC(C)(C)NCc1cc(C(C)(C)C)cc(CNC(C)(C)CC(C)(C)C)c1O | no (0)
COc1ccc(Br)c2ccccc12 | no (0)
O=C(/C=C/c1ccccc1)n1c(-c2ccccc2)nc2ccccc21 | no (0)
Cn1c(=O)c2[nH]c(Cc3ccc4c(c3)OCO4)nc2n(C)c1=O | no (0)
F | no (0)
CCOC(C)(c1ccc(Cl)cc1)C1CCNCC1 (configuration not stated) | no (0)
CC(=O)OC1Oc2ccccc2-c2oc3nc(=N)n(C)c-3cc21 (configuration not stated) | no (0)
O=C(CI)NCCNc1cccc2c(S(=O)(=O)O)cccc12 | no (0)
Cc1cc(C)c(C#N)c(SCC(=O)c2sc3c(C#N)c(C)cc(C)[n+]3c2[O-])n1 | no (0)
CCOC(=O)c1ccc(N(CCC(=O)O)C(C)=O)cc1 | no (0)
CCCCCc1c(C)[nH]c(/C=C2\N=C(c3ccc[nH]3)C=C2CC)c1C | yes (1)
O=C(Cc1ccc(Nc2ccnc(C(F)(F)F)c2)cc1)N/N=C/c1ccccc1O | no (0)
O=C1C2=C(C(=O)c3c(O)ccc(O)c31)N(c1ccc(N3CCOCC3)nc1)Cc1ccccc1O2 | yes (1)
COc1ccc2c(c1)CCCC21C(=O)Nc2ccccc21 (configuration not stated) | no (0)
COCCCNCC(=O)Nc1c(C)cccc1C | no (0)
Clc1ccc2c(c1)-c1ccccc1C1=NCCN12 | no (0)
COc1ccc(NC(=O)/C=C/c2ccc(Cl)c(Cl)c2)cn1 | no (0)
COc1cc(NC(C)CCCN)c2ncccc2c1Oc1ccc(Cl)cc1 (configuration not stated) | no (0)
COc1ccc(/C(=C\c2ccc3c(c2)OCO3)C(=O)Nc2nc3ccc(F)cc3s2)cc1OC | no (0)
O=C(NNC(=S)Nc1ccccc1)c1ccc(Nc2ncnc3c2cnn3-c2cccc(Br)c2)cc1 | no (0)
CC(=O)c1ccc(Nc2nc(Cl)nc(Oc3c(Cl)cccc3Cl)n2)cc1 | no (0)
CN1CCN(Cc2ccc(NC(=O)c3cncc(C#Cc4cnc5cccnn45)c3)cc2C(F)(F)F)CC1 | yes (1)
COc1cc(OC)cc(-c2n/c(=C\c3c(O)[nH]c4ccc(Cl)cc34)cc3c2=Nc2ccccc2-3)c1 | no (0)
